Listed next: entries and their corresponding median fluorescence.
# Target entity: T1, FZD8 cysteine-rich domain (CRD), MYC-tagged and GPI-anchored on CHO cells (human, UniProt Q498S8 31-155 (rat entry), GPI anchor)
# T1 construct: also called FZD8 CRD; CHO-myc-FZDGPI; not shown: MYC tag and GPI anchor signal
# T1 sequence: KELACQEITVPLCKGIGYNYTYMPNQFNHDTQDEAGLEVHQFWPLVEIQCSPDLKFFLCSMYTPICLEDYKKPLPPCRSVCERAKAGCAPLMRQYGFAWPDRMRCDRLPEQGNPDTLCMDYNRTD
# Assay details: flow cytometry, CHO-CRD cells;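 further: flow cytometry of Fab binding to CHO cells overexpressing a Frizzled CRD, with binding defined as median fluorescence over twice that of CHO cells lacking any Frizzled CRD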
Number only, no unit.

Guide cases for median fluorescence, answers given:
Fab-2900 (Fab, V domains shown, Fab; also called Fv-2900) VH: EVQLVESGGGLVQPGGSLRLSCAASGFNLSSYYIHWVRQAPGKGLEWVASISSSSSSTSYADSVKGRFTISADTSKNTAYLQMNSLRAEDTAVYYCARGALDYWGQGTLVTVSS VL: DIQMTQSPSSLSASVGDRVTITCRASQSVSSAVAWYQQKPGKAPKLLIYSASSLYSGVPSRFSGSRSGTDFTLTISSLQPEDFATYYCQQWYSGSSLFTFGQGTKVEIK; 23.3
Fab-2927 (Fab, V domains shown, Fab; also called Fv-2927) VH: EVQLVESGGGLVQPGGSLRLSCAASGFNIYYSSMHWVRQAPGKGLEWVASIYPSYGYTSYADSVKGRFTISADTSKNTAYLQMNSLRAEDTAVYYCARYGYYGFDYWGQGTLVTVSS VL: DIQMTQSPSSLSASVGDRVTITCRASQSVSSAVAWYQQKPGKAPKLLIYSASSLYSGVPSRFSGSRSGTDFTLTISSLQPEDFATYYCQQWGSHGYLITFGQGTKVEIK; 10.3
Fab-2926 (Fab, V domains shown, Fab; also called Fv-2926) VH: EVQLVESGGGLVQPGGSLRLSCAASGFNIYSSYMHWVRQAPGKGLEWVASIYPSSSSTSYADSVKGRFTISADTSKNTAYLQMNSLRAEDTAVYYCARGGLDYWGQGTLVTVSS VL: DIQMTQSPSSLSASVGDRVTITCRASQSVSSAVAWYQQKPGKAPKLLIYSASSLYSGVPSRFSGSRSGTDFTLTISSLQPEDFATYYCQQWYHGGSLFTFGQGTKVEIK; 12.9

Task: # get_value(readout='median fluorescence', item= Fab-2932 (Fab, V domains shown, Fab; also called Fv-2932) VH: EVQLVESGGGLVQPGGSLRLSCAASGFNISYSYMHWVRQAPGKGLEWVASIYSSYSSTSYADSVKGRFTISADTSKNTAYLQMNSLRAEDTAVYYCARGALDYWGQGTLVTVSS VL: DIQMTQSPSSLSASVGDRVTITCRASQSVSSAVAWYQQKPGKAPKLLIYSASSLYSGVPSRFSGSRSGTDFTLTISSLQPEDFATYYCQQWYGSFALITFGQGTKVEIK )
Output: 28.9

Data provenance: patent US20210253718A1
